Cited source: patent US10149839B2

Documented IC50 across a set of compounds
Test System: Estrogen Receptor (ERα) in MCF-7 cells (Homo sapiens (Human))
Sequence (P03372 whole entry): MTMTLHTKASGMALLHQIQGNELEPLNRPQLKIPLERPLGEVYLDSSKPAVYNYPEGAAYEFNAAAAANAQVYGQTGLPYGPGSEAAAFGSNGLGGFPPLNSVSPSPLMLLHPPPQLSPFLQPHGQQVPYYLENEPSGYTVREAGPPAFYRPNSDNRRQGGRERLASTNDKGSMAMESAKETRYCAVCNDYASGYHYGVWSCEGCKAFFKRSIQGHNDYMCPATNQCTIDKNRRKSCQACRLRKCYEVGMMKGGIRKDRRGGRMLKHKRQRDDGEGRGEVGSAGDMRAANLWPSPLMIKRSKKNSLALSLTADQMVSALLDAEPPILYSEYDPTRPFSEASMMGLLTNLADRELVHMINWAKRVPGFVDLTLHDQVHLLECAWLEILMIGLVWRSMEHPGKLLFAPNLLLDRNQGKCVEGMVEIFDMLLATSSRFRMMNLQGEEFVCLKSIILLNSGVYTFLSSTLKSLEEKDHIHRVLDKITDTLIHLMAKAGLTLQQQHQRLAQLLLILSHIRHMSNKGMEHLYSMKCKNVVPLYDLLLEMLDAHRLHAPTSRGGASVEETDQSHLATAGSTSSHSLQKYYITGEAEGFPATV
Assay Summary: MCF-7 ER down-regulation assay (immuno-fluorescence)
Format: cell-based
Test Settings: 18-22 hours incubation
Property Label: IC50 (nM)

# Compound, Unit Text, Value Measured
records = [
    ("COc1nc(OCCNCCCF)ccc1[C@@H]1c2[nH]c3ccccc3c2C[C@@H](C)N1CC(F)F [Example 75]", "nM", 1.2),
    ("CC(C)CN1[C@H](c2ccc(OCCNCCCF)cc2)c2[nH]c3ccccc3c2C[C@H]1C [Example 2]", "nM", 0.43),
    ("C[C@@H]1Cc2c([nH]c3ccccc23)[C@@H](c2c(F)cc(NCCNCCCF)cc2F)N1CC(F)F [Example 54]", "nM", 0.13),
    ("COc1cc(OCCNCCCF)ncc1[C@@H]1c2[nH]c3ccccc3c2C[C@@H](C)N1CC(C)(F)F [Example 42]", "nM", 0.079),
    ("C[C@H](COc1ccc([C@@H]2c3[nH]c4ccccc4c3C[C@@H](C)N2CC2(F)COC2)cc1)NCCCF [Example 28]", "nM", 11),
    ("C[C@@H]1Cc2c([nH]c3ccccc23)[C@@H](c2ccc(OCCNCCCF)cn2)N1CC(C)(C)F [Example 30]", "nM", 1.2),
    ("C[C@@H]1Cc2c([nH]c3ccccc23)[C@@H](c2ccc(OCCNCCCF)nc2)N1CC1(F)CC1 [Example 33]", "nM", 3.3),
    ("COc1cc(OCCNCCCF)ncc1[C@@H]1c2[nH]c3ccccc3c2C[C@@H](C)N1CC(C)(C)F [Example 36]", "nM", 0.14),
    ("C[C@@H]1Cc2c([nH]c3ccccc23)[C@@H](c2c(F)cc(OCCNCCCF)cc2F)N1CC(C)(F)CO (single isomer, unassigned) [Example 18]", "nM", 0.65),
    ("C[C@@H]1Cc2c([nH]c3ccccc23)[C@@H](c2ccc(OCCNCCCF)cc2F)N1CC(F)F [Example 48]", "nM", 0.26),
    ("COc1cc(OCCNCCCF)ccc1[C@@H]1c2[nH]c3ccccc3c2C[C@@H](C)N1CC(F)(F)F [Example 73]", "nM", 0.094),
    ("C[C@@H]1Cc2c([nH]c3ccccc23)[C@@H](c2ccc(OCCNCCCF)cc2)N1CC(F)CF (single isomer, unassigned) [Example 25]", "nM", 0.36),
    ("CC(CNCCCF)Oc1cc(F)c([C@@H]2c3[nH]c4ccccc4c3C[C@@H](C)N2CC(C)(C)F)c(F)c1 (stereo partly drawn) [Example 19]", "nM", 0.41),
    ("C[C@@H]1Cc2c([nH]c3ccccc23)[C@@H](c2cnc(NCCNCCCF)cn2)N1CC(F)F [Example 71]", "nM", 0.83),
    ("CC(C)CN1[C@H](c2ccc(OCCNCCC(F)F)cc2)c2[nH]c3ccccc3c2C[C@H]1C [Example 1]", "nM", 0.94),
]

###

Documented solubility at 24 h across a set of molecules
Assay Summary: Thermodynamic solubility (shake flask)
Type: physicochemical
Test Settings: aqueous phosphate buffer, 25 °C, pH 7.4, aqueous buffer, thermodynamic from solid, aqueous phosphate buffer pH 7.4, 24 hours
Property Label: solubility at 24 h (µM)

# Molecule, Property Label, Comparison Symbol, Value Measured
records = [
    ("C[C@@H]1Cc2c([nH]c3ccccc23)[C@@H](c2ccc(OCCNCCCF)cc2F)N1CC(F)F", "solubility at 24 h", "=", 94),
    ("C[C@@H]1Cc2c([nH]c3ccccc23)[C@@H](c2c(F)cc(NCCNCCCF)cc2F)N1CC1(F)COC1", "solubility at 24 h", "=", 577),
    ("COc1nc(NCCNCCCF)ccc1[C@@H]1c2[nH]c3ccccc3c2C[C@@H](C)N1CC(F)F", "solubility at 24 h", "=", 335),
    ("CC(C)CN1[C@H](c2ccc(OCCNCCC(F)F)cc2)c2[nH]c3ccccc3c2C[C@H]1C", "solubility at 24 h", "=", 34),
    ("C[C@@H]1Cc2c([nH]c3ccccc23)[C@@H](c2ccc(OCCNCCCF)cc2)N1CC(F)F", "solubility at 24 h", "=", 184),
    ("C[C@@H]1Cc2c([nH]c3ccccc23)[C@@H](c2ccc(OCCNCCCF)cc2)N1CC(C)(F)F", "solubility at 24 h", "=", 35),
    ("C[C@@H]1Cc2c([nH]c3ccccc23)[C@@H](c2cnc(OCCNCCCF)cn2)N1CC(C)(C)F", "solubility at 24 h", "=", 227),
    ("COc1cc(OCCNCCCF)ncc1[C@@H]1c2[nH]c3ccccc3c2C[C@@H](C)N1CC1(F)COC1", "solubility at 24 h", ">", 1000),
    ("COc1cc(NCCNCCCF)ccc1[C@@H]1c2[nH]c3ccccc3c2C[C@@H](C)N1CC(F)F", "solubility at 24 h", "=", 24),
    ("C[C@@H]1Cc2c([nH]c3ccccc23)[C@@H](c2cnc(OCCNCCCF)cn2)N1CC(F)F", "solubility at 24 h", "=", 607),
    ("COc1cc(OCCNCCCF)cnc1[C@@H]1c2[nH]c3ccccc3c2C[C@@H](C)N1CC(C)(C)F", "solubility at 24 h", "=", 99),
    ("C[C@@H]1Cc2c([nH]c3ccccc23)[C@@H](c2c(F)cc(OCC(CO)NCCCF)cc2F)N1CC(C)(C)F (stereo partly drawn)", "solubility at 24 h", "=", 18),
    ("COCC(C)(F)CN1[C@H](c2c(F)cc(OCCNCCCF)cc2F)c2[nH]c3ccccc3c2C[C@H]1C (stereo partly drawn)", "solubility at 24 h", "=", 47),
    ("C[C@@H]1Cc2c([nH]c3ccccc23)[C@@H](c2c(F)cc(OCCNCCCF)cc2F)N1C[C@H](F)CF (single isomer, unassigned)", "solubility at 24 h", "=", 83),
    ("C[C@@H]1Cc2c([nH]c3ccccc23)[C@@H](c2ccc(OC[C@H](C)NCCCF)cc2)N1CC1(F)COC1", "solubility at 24 h", "=", 281),
    ("CC(C)CN1[C@H](c2ccc(OCCNCCCF)cc2)c2[nH]c3ccccc3c2C[C@H]1C", "solubility at 24 h", "=", 301),
    ("C[C@@H]1Cc2c([nH]c3ccccc23)[C@@H](c2ccc(OCCNCCCF)cc2F)N1CC1(F)COC1", "solubility at 24 h", "=", 197),
    ("COc1cc(OCCNCCCF)ncc1[C@@H]1c2[nH]c3ccccc3c2C[C@@H](C)N1CC(F)(F)F", "solubility at 24 h", "=", 389),
    ("C[C@@H]1Cc2c([nH]c3ccccc23)[C@@H](c2ccc(OCCNCCCF)cn2)N1CC1(F)COC1", "solubility at 24 h", "=", 980),
    ("C[C@@H]1Cc2c([nH]c3ccccc23)[C@@H](c2c(F)cc(NCCNCCCF)cc2F)N1CC(F)F", "solubility at 24 h", "=", 242),
    ("COc1cc(NCCNCCCF)ccc1[C@@H]1c2[nH]c3ccccc3c2C[C@@H](C)N1CC1(F)CC1", "solubility at 24 h", "=", 760),
    ("C[C@@H]1Cc2c([nH]c3ccccc23)[C@@H](c2cnc(NCCNCCCF)cn2)N1CC(F)F", "solubility at 24 h", ">", 1000),
    ("COc1cc(NCCNCCCF)ncc1[C@@H]1c2[nH]c3ccccc3c2C[C@@H](C)N1CC(F)(F)CO", "solubility at 24 h", "=", 911),
    ("CC(CNCCCF)Oc1cc(F)c([C@@H]2c3[nH]c4ccccc4c3C[C@@H](C)N2CC(C)(C)F)c(F)c1 (stereo partly drawn)", "solubility at 24 h", "=", 11),
    ("C[C@@H]1Cc2c([nH]c3ccccc23)[C@@H](c2ccc(OCCNCCCF)cc2)N1CC1(F)COC1", "solubility at 24 h", "=", 370),
    ("C[C@@H]1Cc2c([nH]c3ccccc23)[C@@H](c2ccc(OCCNCCCF)nc2)N1CC1(F)COC1", "solubility at 24 h", "=", 787),
    ("C[C@@H]1Cc2c([nH]c3ccccc23)[C@@H](c2c(F)cc(OCCNCCC(F)F)cc2F)N1CC(C)(C)F", "solubility at 24 h", "=", 4),
    ("COc1cc(OCCNCCCF)ncc1[C@@H]1c2[nH]c3ccccc3c2C[C@@H](C)N1CC(F)F", "solubility at 24 h", "=", 854),
    ("C[C@@H]1Cc2c([nH]c3ccccc23)[C@@H](c2ccc(OCCNCCCF)nc2)N1CC1(F)CC1", "solubility at 24 h", "=", 244),
    ("COc1nc(OCCNCCCF)ccc1[C@@H]1c2[nH]c3ccccc3c2C[C@@H](C)N1CC(F)F", "solubility at 24 h", "=", 411),
]
